- ASSAY SYSTEM: 5-HT2B (Homo sapiens (Human), UniProt P41595)
- Sequence (P41595 whole entry, looked up): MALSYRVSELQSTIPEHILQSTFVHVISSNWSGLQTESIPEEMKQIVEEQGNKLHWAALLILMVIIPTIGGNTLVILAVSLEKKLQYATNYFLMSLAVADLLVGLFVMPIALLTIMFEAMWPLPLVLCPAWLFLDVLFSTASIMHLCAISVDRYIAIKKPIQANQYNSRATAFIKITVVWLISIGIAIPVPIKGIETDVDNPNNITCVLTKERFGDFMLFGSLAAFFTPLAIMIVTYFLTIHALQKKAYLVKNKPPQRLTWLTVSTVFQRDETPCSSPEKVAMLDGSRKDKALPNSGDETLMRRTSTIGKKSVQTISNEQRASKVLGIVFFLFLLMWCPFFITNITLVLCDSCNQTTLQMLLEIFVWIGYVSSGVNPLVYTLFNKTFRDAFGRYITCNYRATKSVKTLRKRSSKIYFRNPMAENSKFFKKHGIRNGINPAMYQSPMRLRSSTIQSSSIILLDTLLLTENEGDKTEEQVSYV
- PROTOCOL DESCRIPTION: IP assay (Eurofins, IP1 HTRF), HEK293 cells;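 also: agonist effect read as cellular IP1 production by HTRF using a europium cryptate anti-IP1 antibody donor and D2-labeled IP1 acceptor, eight compound concentrations in each cell line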
- Format: cell-based
- MEASUREMENT SETUP: duplicate determinations, read-out: 5-HT2B EC50
Counter-ions that a name gives are not always drawn.
READOUT: pEC50
Numbers only, as −log10 of the molar value.

>>> measured_number("COc1cc(C2CC[C@@H](c3ccccc3OC)NC2)c(OC)cc1Br (some centres unmarked) [Compound 8a, reference compound]")
6.11
>>> measured_number("CCOc1cc(CC)c(OC)cc1[C@@H]1CCCNC1")
5.96
>>> measured_number("COc1cc(C(F)(F)F)ccc1[C@@H]1CCCNC1 [Compound 53, hydrochloride]")
6.03
>>> measured_number("COc1cc([C@@H]2CCCNC2)c(OC)cc1C#N")
5.30

// for each compound in input: emit pEC50
1. COc1cc([C@@H]2CCCNC2)c(OC)cc1Cl
2. CCc1cc(OC)c([C@@H]2CCCNC2)cc1OC.Cl [Compound 32, hydrochloride]
3. COc1cc([C@@H]2CCCNC2)c(OC)cc1I
4. CCSc1cc([C@@H]2CCCNC2)c(OC)cc1C(F)(F)F.Cl [Compound 47, Hydrochloride]

Result block:
[6.62, 6.55, 6.77, 6.21]

// for each compound in input: emit pEC50
1. COc1cc([C@@H]2CCCNC2)c(OCF)cc1C(F)(F)F
2. COc1cc(C(F)(F)F)c(OC)cc1[C@@H]1CNC[C@@H](C)C1.Cl (relative stereo) [Compound 36, hydrochloride]

Result block:
1. 5.96
2. 6.92
